Provenance of the data: paper PMC3060121

Each item that follows carries a reported pKd.
# target.entity: T1, human Pex5p(C), cargo-binding domain of Pex5p (residues 315-639), wild-type (human, UniProt P50542 315-639, biotin (EZ-Link Sulfo-NHS-Biotinylation Kit, between 1 and 2 moles of biotin per mole) in the Octet RED96 assay only)
# T1 construct: The His6-GST fusion is cleavable with TEV protease; also called Pex5p(C) WT; HsPex5p(C)
# assay.overview: ITC; MicroCal VP-ITC; Pex5p(C) wild-type or mutant titrated with mSCP2 or the peptide PGNAKL; as described in ref 4
# experimental.setup: both partners purified
pKd: −log10 of the molar value.

| binder | pKd |
| --- | --- |
| PGNAKL (C-terminal six residues of sterol carrier protein 2, human; numbers count on: preSCP2 of 143 residues; Free C-terminal carboxylate (PGNAKL-CO2-) as printed in the background; also called PGNAKL-CO2-; source: synthetic peptide (Sigma-Aldrich, > 95% purity)) [PTS1 hexapeptide PGNAKL derived from the C-terminus of SCP2] | 6.26 |
| mature sterol carrier protein 2, mSCP2 (21-143) (natural protein, human, UniProt P22307-2 21-143, looked up, numbers count on: preSCP2 of 143 residues; The His6-GST fusion is cleavable with TEV protease) SSASDGFKANLVFKEIEKKLEEEGEQFVKKIGGIFAFKVKDGPGGKEATWVVDVKNGKGSVLPNSDKKADCTITMADSDFLALMTGKMNPQSAFFQGKLKITGNMGLAMKLQNLQLQPGNAKL | 7.02 |
